Experimental System: Gastric triacylglycerol lipase (Canis lupus familiaris) (UniProt P80035)
Sequence (P80035 whole entry): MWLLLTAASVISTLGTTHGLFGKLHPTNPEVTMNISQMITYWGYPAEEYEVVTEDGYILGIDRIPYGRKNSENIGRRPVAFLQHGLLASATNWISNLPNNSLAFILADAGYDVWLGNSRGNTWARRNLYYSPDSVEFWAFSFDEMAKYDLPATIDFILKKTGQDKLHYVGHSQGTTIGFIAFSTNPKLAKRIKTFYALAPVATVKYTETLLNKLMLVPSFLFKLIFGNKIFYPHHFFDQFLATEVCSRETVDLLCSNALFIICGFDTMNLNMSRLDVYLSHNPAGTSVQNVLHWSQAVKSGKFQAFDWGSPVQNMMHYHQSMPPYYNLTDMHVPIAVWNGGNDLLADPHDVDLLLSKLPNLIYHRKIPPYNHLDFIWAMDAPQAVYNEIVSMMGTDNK
Experiment: Inhibition of recombinant dog gastric lipase at 20:1 molar excess compound concentration preincubated for 30 mins at 25 degreeC relative to control

# Mol Smiles, Output Unit, inhibition
records = [
    ("CCCCCCCCCCCCOc1nn(-c2cccc(Oc3ccccc3)c2)c(=O)o1", "%", 68.2),
    ("CC(C)COc1nn(-c2cccc(Oc3ccccc3)c2)c(=O)o1", "%", 69.6),
    ("CCCCOc1nn(-c2cccc(Oc3ccccc3)c2)c(=O)o1", "%", 77.5),
    ("O=c1oc(OCCOCc2ccccc2)nn1-c1cccc(Oc2ccccc2)c1", "%", 91.5),
]
